The reported numbers originate from patent US6946483B2.

Counter-ions that a name gives are not always drawn.
quantity measured: melting point

Examples from the recorded data:
CCCCc1oc2cc(C)c(C(=O)OC(C)C)cc2c1C(=O)c1ccc(/C=C\CN(CCCC)CCCC)cc1.Cl = 129 °C
CCCCc1oc2ccc(C(=O)OC(C)C)cc2c1C(=O)c1cc(C)c(/C=C/CN(CCCC)CCCC)c(C)c1 (as salt: oxalate) [Example 44] = 110 to 115 °C
CCCCc1oc2c(C(=O)OC(C)C)cccc2c1C(=O)c1ccc(/C=C/CN(CCCC)CCCC)cc1 (as salt: oxalate) [Example 52] = 120 °C
CCCCc1oc2ccc(C(=O)OC(C)C)cc2c1C(=O)c1cc(Cl)c(/C=C/CN(CCCC)CCCC)c(Cl)c1 (as salt: oxalate) [Example 51] = 91 to 93 °C
CCCCN(C/C=C/c1ccc(C(=O)c2c(CC(C)C)oc3ccc(C(=O)OC(C)C)cc23)cc1)CCCC (as salt: hydrochloride) [Example 40] = 147 to 150 °C

Now let's try a different one.
Quick one: melting point of CCCCN(C/C=C/c1ccc(C(=O)c2c(C3CCCCC3)oc3ccc(C(=O)OC(C)C)cc23)cc1)CCCC (as salt: hydrochloride) [Example 43] ?
171 to 173 °C
